System: Echinochloa crusgalli
Assay: Pre-emergence treatment, herbicidal efficacy on barnyardgrass
Assay type: in vivo
Conditions: 125 g/ha, 4 weeks after spraying, scale 0 to 10
I'd appreciate it if you could supply Herbicidal efficacy, Echinochloa crusgalli values for the items below.
Answers are plain numbers.

Sample records with Herbicidal efficacy, Echinochloa crusgalli:
CC1(COCc2ccccc2F)CC(c2ccccc2[N+](=O)[O-])=NO1 (centres unmarked) [Reference A]; 2
Cc1ccccc1C1=NOC(C)(COCc2ccccc2)C1 (centres unmarked) [Reference C]; 5
Cc1ccccc1C1=NOC(C)(COCc2c(F)cccc2Cl)C1 (centres unmarked) [Reference E]; 5
Cc1ccccc1C1=NOC(C)(COCc2ccccc2F)C1 (centres unmarked) [Reference D]; 3

Challenge: For the compound Cc1ccc(C2=NOC(C)(COCc3c(F)cccc3F)C2)cc1 (centres unmarked) [Reference G] , what Herbicidal efficacy, Echinochloa crusgalli is on record?
Response given: 3

###

Tested on: Digitaria sanguinalis
Assay: Post-emergence treatment, herbicidal efficacy on large crabgrass
Format: in vivo
Settings: post-emergence, 125 g/ha, 4 weeks after spraying, scale 0 to 10
I'd appreciate it if you could supply Herbicidal efficacy, Digitaria sanguinalis values for the items below.
Numbers only.

Cc1ccccc1C1=NOC(C)(COCc2c(F)cccc2Cl)C1 (stereo not drawn) [Reference E]; 0

Give Herbicidal efficacy, Digitaria sanguinalis for each listed item.
1. CC1(COCc2c(F)cccc2F)CC(c2ccccc2C(F)(F)F)=NO1 (stereo not drawn) [Compound 5]
2. Cc1ccccc1C1=NOC(C)(COCc2c(F)cccc2F)C1 (stereo not drawn) [Compound 1]
3. Cc1ccc(C2=NOC(C)(COCc3c(F)cccc3F)C2)cc1 (stereo not drawn) [Reference G]
4. CC1(COCc2c(F)cccc2Cl)CC(c2ccccc2)=NO1 (stereo not drawn) [Reference H]
5. CC1(COCc2c(F)cccc2Cl)CC(c2ccccc2Cl)=NO1 (stereo not drawn) [Reference B]

Response given:
[6, 6, 0, 0, 0]

###

System: Digitaria sanguinalis
Assay: Pre-emergence treatment, herbicidal efficacy on large crabgrass
Type: in vivo
Conditions: 62.5 g/ha, 4 weeks after spraying, scale 0 to 10
I'd appreciate it if you could supply Herbicidal efficacy, Digitaria sanguinalis values for the items below.
Numbers only.

Sample records with Herbicidal efficacy, Digitaria sanguinalis:
CC1(COCc2c(F)cccc2F)CC(c2ccccc2Cl)=NO1 (stereo not drawn) [Compound 2]; 9
CC1(COCc2c(F)cccc2F)CC(c2ccccc2F)=NO1 (stereo not drawn) [Compound 4]; 10

Give Herbicidal efficacy, Digitaria sanguinalis for each listed item.
1. CC1(COCc2c(F)cccc2Cl)CC(c2ccccc2)=NO1 (stereo not drawn) [Reference H]
2. CC1(COCc2c(F)cccc2Cl)CC(c2ccccc2Cl)=NO1 (stereo not drawn) [Reference B]
3. CC1(COCc2c(F)cccc2F)CC(c2ccccc2C(F)(F)F)=NO1 (stereo not drawn) [Compound 5]

Response given:
[0, 0, 10]

###

Tested on: Echinochloa crusgalli
Experiment: Pre-emergence treatment, herbicidal efficacy on barnyardgrass
Assay type: in vivo
Settings: 62.5 g/ha, 4 weeks after spraying, scale 0 to 10
Values of Herbicidal efficacy, Echinochloa crusgalli strictly less than 2 map to true (1), and values of at least 2 map to false (0).

Answered cases to consult:
Cc1ccccc1C1=NOC(C)(COCc2c(F)cccc2F)C1 (stereo not shown) [Compound 1]; false (0)
CC1(COCc2c(F)cccc2Cl)CC(c2ccccc2)=NO1 (stereo not shown) [Reference H]; true (1)
Cc1ccc(C2=NOC(C)(COCc3c(F)cccc3F)C2)cc1 (stereo not shown) [Reference G]; true (1)
CC1(COCc2c(F)cccc2F)CC(c2ccccc2Cl)=NO1 (stereo not shown) [Compound 2]; false (0)

Challenge: Herbicidal efficacy, Echinochloa crusgalli strictly < 2 for this compound? CC1(COCc2c(F)cccc2F)CC(c2ccccc2Br)=NO1 (stereo not shown) [Compound 3]
Response given: false (0)

Challenge: Same question for CC1(COCc2ccccc2F)CC(c2ccccc2[N+](=O)[O-])=NO1 (stereo not shown) [Reference A] please.
Response given: true (1)

Challenge: Same question for CC1(COCc2c(F)cccc2F)CC(c2ccccc2F)=NO1 (stereo not shown) [Compound 4] please.
Response given: false (0)
